# System: L. donovani-infected THP-1 macrophages, intracellular amastigote imaging
# protocol: antileishmanial activity in infected THP-1 macrophages – imaging, THP-1 host macrophages, host toxicity (AID 1159564)
# experimental_parameters: measured here: THP-1 host cell toxicity
Kindly supply the reported pIC50 values for the records listed here.
Give bare numbers, as −log10 of the molar value.

For each of the compounds below, state pIC50.
1. CC(C)S(=O)(=O)c1ccc(-c2cnc(N)c3cc(-c4ccnc(N)n4)ccc23)cc1
2. CC(c1ccccn1)N(C)Cc1nc2ccccc2n1C(C)C (stereo not given)
3. CCOc1cc(NCCCN2CCN(C)CC2)c2ncccc2c1
4. CCCN(Cc1ccc(OC)c(OC)c1)Cc1cc(=O)c2c(C)cc(C)cc2[nH]1
5. O=C(NNC(=O)c1ccccn1)c1ccc(-c2ccccc2)cc1
6. Cc1nn(-c2nc3ccccc3[nH]2)c2c1C(c1ccc(O)cc1)CC(=O)N2 (stereo not given)

## Output
5.60
4.80
5.20
5.30
5.49
5.20
